test system: Wild type; assay: S. aureus survival, RN4220 and DeltatarO strains – OD600, teichoic acid synthesis inhibitors, primary screen (AID 463173); settings: S. aureus RN4220 wild type/DeltatarO growth, OD600, 18 h, hits give low values, screened at 18.75 µg/mL (by protocol)
In all, about 52,000 compounds went through this assay and about 1,700 (3.3%) were called active. The full list was thinned out, with actives kept by preference.
assay readout: survival (%)
Report as a plain number; the unit % is understood.

Solved cases (3 shown):
CNC(=O)c1c(NC(=O)c2ccc(S(=O)(=O)N3CCC(C)CC3)cc2)sc2c1CCC2 | 129
CCCc1ccc(OCC(=O)Nc2sc3c(c2C(=O)OC)CCCCC3)cc1 | 43
COC(=O)c1c(NC(=O)C(C)Oc2ccc(Cl)c(C)c2)sc(C)c1C (stereo not given) | 10

[Q] Which value of survival has been reported for `CCOC(=O)c1c(NC(=O)c2ccc(OC)cc2)sc2c1CCCCC2` in the records?
[A] 7

[Q] Next molecule up: `CNC(=O)c1c(NC(=O)c2ccc(S(=O)(=O)N3CCCCC3)cc2)sc2c1CCC2`
[A] -2
